# TEST METHOD NOTES: qHTS of pediatric cancer cell lines to identify multiple opportunities for drug repurposing: Primary screen for DAOY cells (AID 1347090); also: nearly all actives have a fitted effect of over 55% in size
# STATED CONDITIONS: DAOY medulloblastoma viability, CellTiter-Glo luminescence, 48 h; series mostly up to 46 µM
Inconclusive results are not listed. Calls of active or inactive are those of the source. Calls follow the shape of the dose curve; as a rule, active = well fitted cell-killing curve with a large enough effect; inconclusive = small, poorly fitted or top-dose-only effect; inactive = flat fitted curve, though single readings scatter.
Classes used: active, inactive

| MOLECULE | CAT |
| --- | --- |
| C=CC[N+]1([C@H]2C[C@H]3[C@@H]4CC[C@H]5C[C@H](O)[C@@H](N6CCOCC6)C[C@]5(C)[C@@H]4CC[C@]3(C)[C@H]2OC(C)=O)CCCC1 | inactive |
| CC1=C(C(=O)Nc2cc3cn[nH]c3cc2F)C(c2ccc(C(F)(F)F)cc2)CC(=O)N1 (stereo not given) | inactive |
| Cc1cc2nc3c(=O)[nH]c(=O)nc-3n(CC(O)C(O)C(O)CO)c2cc1C (stereo not given) | inactive |
| Cc1[nH]c(C=C2C(=O)Nc3ccc(S(=O)(=O)N(C)c4cccc(Cl)c4)cc32)c(C)c1C(=O)N1CCN(C)CC1 | active |
| Nc1[nH]nc2nnc(-c3c(-c4ccccc4)nn4ccccc34)cc12 | active |

###

# TEST METHOD NOTES: qHTS of pediatric cancer cell lines to identify multiple opportunities for drug repurposing: Primary screen for SJ-GBM2 cells (AID 1347091)
# STATED CONDITIONS: SJ-GBM2 viability, CellTiter-Glo luminescence, 48 h; series mostly up to 46 µM
Inconclusive results are not listed. The source made the active and inactive calls. The call rests on the fitted dose curve; in most records, active means well fitted cell-killing curve with a large enough effect; inconclusive means small, poorly fitted or top-dose-only effect; inactive means no such curve, though single readings can be large or run the other way.
Classes used: True (active), False (inactive)

| MOLECULE | CAT |
| --- | --- |
| CCCCCCCCCCCCCCCC(=O)O[C@H]1[C@@H](O)[C@@H](O)[C@@H]([C@H](NC(=O)[C@@H]2C[C@@H](CCC)CN2C)[C@H](C)Cl)O[C@@H]1SC | False |
| CC(C)CN(C[C@@H](O)[C@H](Cc1ccccc1)NC(=O)O[C@H]1CO[C@H]2OCC[C@H]21)S(=O)(=O)c1ccc(N)cc1 | False |
| Cc1nc(NC(=O)N2CCC[C@@H]2C(N)=O)sc1-c1csc(C(C)(C)C)n1 | True |
| FC(F)(F)c1ccc(C=Cc2nc(COc3ccc(CCCCn4ccnn4)cc3)co2)cc1 | True |
| CN1CC(=O)N2C(Cc3c([nH]c4ccccc34)[C@H]2c2ccc3c(c2)OCO3)C1=O (some centres not stated) | False |
| C[C@@]1(C(=O)Nc2ccc(F)nc2)CCCN1c1nc(Nc2cc(C3CC3)[nH]n2)c2cccn2n1 | True |
| CC(=O)NCCC(=O)N[C@@H](CCC(N)=O)C(=O)N[C@@H](CO)C(=O)N[C@@H](CCC(N)=O)C(=O)N[C@@H](CCC(N)=O)C(=O)N[C@H](C(=O)N[C@@H](Cc1ccccc1)C(=O)N[C@]1(C)CCCCCCC=CCCC[C@@](C)(C(=O)N[C@@H](CCC(N)=O)C(=O)N[C@@H](CC(N)=O)C(N)=O)NC(=O)[C@H](CC(C)C)NC(=O)[C@H](CC(C)C)NC(=O)[C@@H](CCCNC(=N)N)NC(=O)[C@H](Cc2c[nH]c3ccccc23)NC(=O)[C@H](CC(C)C)NC(=O)[C@H](CC(N)=O)NC1=O)[C@H](C)O | False |

Data origin: PubChem BioAssay (NCATS)
